- Test Description: photoluminescence quantum yield (fraction); solvent given as SMILES
- Setup Conditions: in CC#N
API: label(entry) gives YES if the entry's photoluminescence quantum yield is strictly smaller than 0.2; on equality or larger values it gives NO.

Req: # TODO verify photoluminescence quantum yield < 0.2 strictly for this compound: `COc1cc(C2=CC3=C(c4c(C)cc(C)cc4C)c4cc(-c5cc(OC)c(OC)c(OC)c5)c(-c5cc(OC)c(OC)c(OC)c5)n4[B-](F)(F)[N+]3=C2c2cc(OC)c(OC)c(OC)c2)cc(OC)c1OC`
Resp: YES

Req: # TODO verify photoluminescence quantum yield < 0.2 strictly for this compound: `Cn1c(=O)cc(C(=O)c2ccccc2)c2sc(-c3ccc(OC(F)(F)F)cc3)cc21`
Resp: NO

Req: # TODO verify photoluminescence quantum yield < 0.2 strictly for this compound: `Fc1ccc(-c2cc3c4c(c2)CCc2cc(-c5ccc(F)cc5)cc(c2-4)CC3)cc1`
Resp: YES

Req: # TODO verify photoluminescence quantum yield < 0.2 strictly for this compound: `c1ccc(-c2nn(-c3ccccc3)c3nc4ccc(N(c5ccccc5)c5ccccc5)cc4cc23)cc1`
Resp: NO

Req: # TODO verify photoluminescence quantum yield < 0.2 strictly for this compound: `CCCCCCc1ccc(-n2c3[n+](c4c5ccccc5c5ccccc5c42)[B-](C)(C)c2ccc4ccccc4c2-3)cc1`
Resp: YES

====

- Test Description: photoluminescence quantum yield (fraction); solvent given as SMILES
- Setup Conditions: in ClC(Cl)Cl
condition met means recorded photoluminescence quantum yield is 0.5 or above; condition not met means it is below 0.5.

Worked examples follow.
| Compound | Label Class |
| --- | --- |
| O=S(=O)(c1ccc(-c2ccc(-c3nc4c5ccccc5c5ccccc5c4n3-c3ccccc3)cc2)cc1)c1ccc(-c2ccc(-c3nc4c5ccccc5c5ccccc5c4n3-c3ccccc3)cc2)cc1 | condition met |
| COc1cc(/C=C/c2nc3ccccc3o2)c(OC)cc1/C=C/c1nc(C)nc(C)n1 | condition met |
| Cc1nc2c(ccc3c2sc(/C=C/c2ccc(N(c4ccccc4)c4ccccc4)cc2)[n+]3C)s1 | condition not met |

Req: Given `[C-]#[N+]c1ccc(-c2ccc(NC)cc2)cc1` , state whether its photoluminescence quantum yield is at least 0.5.
Resp: condition met

Req: Given `Fc1ccc(-c2cc3c4c(c2)CCc2cc(-c5ccc(F)cc5)cc(c2-4)CC3)cc1` , state whether its photoluminescence quantum yield is at least 0.5.
Resp: condition met

Req: Given `CCC1=C(C)C(=O)n2c1cc1c(c(C)c(C(=O)OCC(C)C)n1CC(C)C)c2=O` , state whether its photoluminescence quantum yield is at least 0.5.
Resp: condition met

Req: Given `CCN(CC)c1ccc(/C=C/C2=[O+][B-](F)(F)Oc3c2c(=O)oc2cc(N(CC)CC)ccc32)cc1` , state whether its photoluminescence quantum yield is at least 0.5.
Resp: condition met

Req: Given `CSc1ccc(C#Cc2ccc(C#Cc3ccc(C#Cc4ccccc4C#N)cc3C#N)cc2C#N)cc1` , state whether its photoluminescence quantum yield is at least 0.5.
Resp: condition met

Req: Given CCCCCCc1cc(-c2ccc3c(c2)C2CCCC2N3c2ccc3c(c2)C(C)(C)c2ccccc2-3)sc1/C=C1\C(=O)c2ccc(C(=O)O)cc2C1=O (centres undefined) , state whether its photoluminescence quantum yield is at least 0.5.
Resp: condition not met

Req: Given `O=C1[C@@H]2[C@H](C(=O)N1c1cccc3cc4ccccc4cc13)[C@@H]1C=C[C@H]2C1` , state whether its photoluminescence quantum yield is at least 0.5.
Resp: condition not met

Req: Given `O=Cc1ccc(Oc2ccc3c4c(cccc24)C(=O)N(CCO)C3=O)cc1` , state whether its photoluminescence quantum yield is at least 0.5.
Resp: condition not met

====

- Test Description: photoluminescence quantum yield (fraction); solvent given as SMILES
- Setup Conditions: in ClCCl
Value Kind: photoluminescence quantum yield
Form field (numeric): enter value without unit.

| Test Smiles | Value Kind | Result Value |
| --- | --- | --- |
| COc1cc2c(cc1OC)C1=C[C@H](c3ccccc3)C3(C(C(=O)O[C@@H]4C[C@H]5CC[C@@H]4C5)=C(C(=O)O[C@H]4C[C@@H]5CC[C@H]4C5)N1CC2)c1ccccc1-c1ccccc13 | photoluminescence quantum yield | 0.00157 |
| C(#Cc1c(C#Cc2cccs2)c(C#Cc2cccs2)c(C#Cc2cccs2)c(C#Cc2cccs2)c1C#Cc1cccs1)c1cccs1 | photoluminescence quantum yield | 0.27 |
| CC1=CC(C)=[N+]2C1=C(c1ccc(-c3c4ccccc4c(-c4ccccc4)c4ccccc34)cc1)c1c(C)cc(C)n1[B-]2(F)F | photoluminescence quantum yield | 0.57 |
| c1ccc([B-]23Oc4ccccc4-c4c5[n+]6c(c([n+]42)-c2ccccc2O3)-c2ccccc2O[B-]6(c2ccccc2)Oc2ccccc2-5)cc1 | photoluminescence quantum yield | 0.2 |

Req: Fill in the blank: the reported photoluminescence quantum yield of `CC1=C(c2ccc(N(c3ccccc3)c3ccccc3)cc2)C(C)=[N+]2C1=C(c1c(-c3ccccn3)nc3ccccn13)c1c(C)c(-c3ccc(N(c4ccccc4)c4ccccc4)cc3)c(C)n1[B-]2(F)F` is ____.
Resp: 0.0078

====

- Test Description: photoluminescence quantum yield (fraction); solvent given as SMILES
- Setup Conditions: in CCO
# key: entry, value: photoluminescence quantum yield
Form field (numeric): enter value without unit.

Illustrative cases are given below, each with its answer.
| Compound | Value Kind | Result Value |
| --- | --- | --- |
| C[C@]12C(=O)NC(=O)N([C@H]3CC(O)[C@@H](CO)O3)[C@H]1[C@H]1Oc3cc4oc(=O)ccc4cc3[C@H]12 (stereo partly drawn) | photoluminescence quantum yield | 0.005 |
| CCN(CC)c1ccc2cc(/C=C/C(=O)c3cc4ccc(N(CC)CC)cc4oc3=O)c(=O)oc2c1 | photoluminescence quantum yield | 0.07 |

Req: Fill in the blank: the reported photoluminescence quantum yield of `F[B-]1(F)n2cccc2C(c2c3ccccc3c(-c3ccccc3)c3ccccc23)=C2C=CC=[N+]21` is ____.
Resp: 0.002

====

- Test Description: photoluminescence quantum yield (fraction); solvent given as SMILES
- Setup Conditions: in CC#N
Value Kind: photoluminescence quantum yield
Form field (numeric): enter value without unit.

Illustrative cases are given below, each with its answer.
| Test Smiles | photoluminescence quantum yield |
| --- | --- |
| COc1ccc2n1[B-](F)(F)[N+]1=CC=CC1=C2c1ccccc1 | 0.02 |
| Cc1cc(=O)oc2cc3cc(O)ccc3cc12 | 0.02 |

# ---- query compound ----
Req: Fill in the blank: the reported photoluminescence quantum yield of `CCN(CC)c1ccc(-c2cc3c(s2)c(C(=O)OC)cc(=O)n3C)cc1` is ____.
Resp: 0.08

====

- Test Description: photoluminescence quantum yield (fraction); solvent given as SMILES
- Setup Conditions: in ClCCl
Value Kind: photoluminescence quantum yield
Form field (numeric): enter value without unit.

| Test Smiles | photoluminescence quantum yield |
| --- | --- |
| c1ccc(B2Nc3cc4c(cc3-c3occc32)NB(c2ccccc2)c2ccoc2-4)cc1 | 0.26 |

Req: Fill in the blank: the reported photoluminescence quantum yield of `CCCCN1C(=O)c2cccc3c(C#CC#Cc4ccc5c6c(cccc46)C(=O)N(CCCC)C5=O)ccc(c23)C1=O` is ____.
Resp: 0.81

Req: Fill in the blank: the reported photoluminescence quantum yield of `COc1ccc(-c2cc(-c3ccc(C#N)cc3)nn2C)cc1` is ____.
Resp: 0.3

Req: Fill in the blank: the reported photoluminescence quantum yield of `COc1cc(OC)cc(-c2ccc(-c3ccc(C#N)s3)s2)c1` is ____.
Resp: 0.09

====

- Test Description: photoluminescence quantum yield (fraction); solvent given as SMILES
- Setup Conditions: in ClC(Cl)Cl
# key: entry, value: photoluminescence quantum yield
Form field (numeric): enter value without unit.

Illustrative cases are given below, each with its answer.
| Test Smiles | photoluminescence quantum yield |
| --- | --- |
| CCCCCCCC1=C(C)C(=O)n2c1cc1[nH]c(C(=O)OC)c(C)c1c2=O | 0.52 |
| CCCN1C(=O)C(=CC=CC=C2Oc3ccccc3N2CCCS(=O)(=O)[O-])C(=O)N(CCC)C1=S | 0.32 |

Req: Fill in the blank: the reported photoluminescence quantum yield of `CN(C)c1[se]c(-c2ccccc2)nc1-c1ccccc1` is ____.
Resp: 0.029

Every entry's value here was drawn from the Deep4Chem optical property database.
